Target: human brain NOS (Homo sapiens)
propertyName: Ki

[
  {
    "compound": "C/N=C(/N)Nc1ccccc1CC(N)C(=O)O (racemic)",
    "Ki": "≤ 0.5 µM"
  },
  {
    "compound": "N=C(Nc1ccc(CC(N)C(=O)O)s1)NC1CC1 (racemic)",
    "Ki": "≤ 10 µM"
  },
  {
    "compound": "CSC(=N)NCc1ccc(CC(N)C(=O)O)s1 (racemic)",
    "Ki": "> 50 µM"
  }
]

# input for lookup
Return reported Ki; argument: CCSC(=N)NCc1ccc(C(N)C(=O)O)s1 (racemic) ≤ 10 µM

---

The next entries give measured Ki for human brain NOS (Homo sapiens).

Example results:
[
  {
    "molecule": "C=CCNC(=N)Nc1ccc(CC(N)C(=O)O)s1 (racemic)",
    "Ki": "≤ 10 µM"
  },
  {
    "molecule": "N=C(N)Nc1cccc(CC(N)C(=O)O)c1 (racemic)",
    "Ki": "≤ 50 µM"
  }
]

# input for lookup
Return reported Ki; argument: N=C(N)Nc1ccc(CC(N)C(=O)O)s1 (racemic) ≤ 10 µM

// data source = patent US5874472A
